B1: TPR t1 (parent)
chain: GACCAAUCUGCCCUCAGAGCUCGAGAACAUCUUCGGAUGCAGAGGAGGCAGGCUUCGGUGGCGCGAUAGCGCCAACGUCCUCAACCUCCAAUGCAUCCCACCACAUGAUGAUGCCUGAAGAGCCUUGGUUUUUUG

- Variants of: B1
- protocol.summary: polymerase ribozyme fitness, log enrichment relative to wild type (log ratio); higher = more active; in vitro selection for triplet polymerase activity
Rule: Condition met for polymerase ribozyme fitness (log ratio) not less than -3, Condition not met for anything less.

C62G A90U	Condition not met
C72G C124U	Condition met
C89A A111C	Condition met

// query Does polymerase ribozyme fitness (log ratio) meet or surpass -3 for G51C G57A ?
// result Condition not met

// query Does polymerase ribozyme fitness (log ratio) meet or surpass -3 for A50U C80A G122A G127C U129C ?
// result Condition not met

// query Does polymerase ribozyme fitness (log ratio) meet or surpass -3 for C98U G135C ?
// result Condition met

// query Does polymerase ribozyme fitness (log ratio) meet or surpass -3 for A43C C101G A121U ?
// result Condition met

// query Does polymerase ribozyme fitness (log ratio) meet or surpass -3 for C12G U14G G107U C114U G120U C123U U133A ?
// result Condition not met

// query Does polymerase ribozyme fitness (log ratio) meet or surpass -3 for C8G U78C C85U G113U U132A ?
// result Condition met

// query Does polymerase ribozyme fitness (log ratio) meet or surpass -3 for C8G C11U A16C G44C U59C G60A C115G ?
// result Condition not met

// query Does polymerase ribozyme fitness (log ratio) meet or surpass -3 for C53G C64U G120A ?
// result Condition met

// query Does polymerase ribozyme fitness (log ratio) meet or surpass -3 for A50U A84C U125A ?
// result Condition met

// query Does polymerase ribozyme fitness (log ratio) meet or surpass -3 for C56U C76A ?
// result Condition met

// query Does polymerase ribozyme fitness (log ratio) meet or surpass -3 for U14A G63C C82U U132A ?
// result Condition not met

// query Does polymerase ribozyme fitness (log ratio) meet or surpass -3 for A16C G57U G71U U87A G127C ?
// result Condition not met

// query Does polymerase ribozyme fitness (log ratio) meet or surpass -3 for A24G G117C G128A ?
// result Condition not met

// query Does polymerase ribozyme fitness (log ratio) meet or surpass -3 for C72U U87G C89U C123A ?
// result Condition met

// query Does polymerase ribozyme fitness (log ratio) meet or surpass -3 for G44U A50U ?
// result Condition met

// query Does polymerase ribozyme fitness (log ratio) meet or surpass -3 for C79U C94A ?
// result Condition not met

// query Does polymerase ribozyme fitness (log ratio) meet or surpass -3 for A50U G69A ?
// result Condition not met

// query Does polymerase ribozyme fitness (log ratio) meet or surpass -3 for C72G A111C ?
// result Condition met
